Origin of the recorded values: the supplement of paper PMC10126150

So I've got a bunch of sequences here, and I need their switch fluorescence ratio values.
Tested on: ATP;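 also: ATP exposure 15 min at 22 °C before imaging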
TEST METHOD NOTES: switch fluorescence ratio, 500 uM ATP over buffer (Cy3 cluster intensity, sum of 5 cycles each) (fold (ratio)); higher = stronger signal-on switching upon ATP binding; sequences stand for … in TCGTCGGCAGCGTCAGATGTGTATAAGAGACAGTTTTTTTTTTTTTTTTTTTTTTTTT…TC
CONDITION LABEL: aptamer strand: ATP DNA aptamer (quencher-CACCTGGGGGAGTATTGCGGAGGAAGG + anchor), 100 nM annealed; ATP concentration: 500 uM
Give bare numbers.

# map each sequence to its switch fluorescence ratio
1. GTGGAATGGG
2. TGTGTTTTCT

RESULT:
1. 0.983
2. 0.986

Need switch fluorescence ratio for each of these sequences.
1. TTTGGCTTCG
2. GGGGGAAGAC
3. GAGCAACCTT
4. TTTTGAGTT
5. TCGTTTTAGT

RESULT:
1: 1.04; 2: 1.04; 3: 1.45; 4: 0.986; 5: 0.985

Fill in switch fluorescence ratio for each of the 4 sequences listed.
1. CCGTGGCTGT
2. CGTCGGGAAT
3. CGATAGTTGT
4. TTTAACTAGA

RESULT:
1. 1.31
2. 1.35
3. 1.27
4. 1.04

---

System: ATP;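 also: ATP exposure 15 min at 22 °C before imaging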
TEST METHOD NOTES: switch fluorescence ratio, 500 uM ATP over buffer (Cy3 cluster intensity, sum of 5 cycles each) (fold (ratio)); higher = stronger signal-on switching upon ATP binding; sequences stand for … in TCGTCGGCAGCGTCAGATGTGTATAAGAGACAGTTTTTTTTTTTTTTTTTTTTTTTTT…TC
CONDITION LABEL: aptamer strand: ATP DNA aptamer (quencher-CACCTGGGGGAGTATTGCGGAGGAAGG + anchor), 100 nM annealed; ATP concentration: 500 uM
EXPERIMENTAL ENDPOINT: switch fluorescence ratio
Give bare numbers.

For each listed entry, give its switch fluorescence ratio.
1. TTTAACGTTG
2. AGGTTGAACG
3. CCGGGGGACA
4. GGGAATGGAT

RESULT:
0.989
0.985
1.1
1.01

For the 6 sequences below, give their switch fluorescence ratio values.
1. CGGGAGGGTC
2. AATGTTGGTG
3. GCAACGTTCC
4. TTGTTCGTTT
5. CGAGCCAGAT
6. TACTACTATT

RESULT:
1.06
0.998
1.96
0.986
1.04
1.03

Each sequence below has a reported value. Please supply its switch fluorescence ratio.
1. TACTAGAGCG
2. ATAAGGGGTT
3. ACTATTATTC
4. CGGAAGATAG
5. GATTTCCGTG

RESULT:
[1.03, 0.993, 1.05, 1.03, 0.987]

Working through the 3 sequences below one at a time, give switch fluorescence ratio for each.
1. TTGTTTTCCA
2. TCAATGCGAT
3. GGGGGACCGA

RESULT:
1: 0.987; 2: 1.33; 3: 1.02

---

Test system: ATP;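 also: ATP exposure 15 min at 22 °C before imaging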
TEST METHOD NOTES: switch fluorescence ratio, 500 uM ATP over buffer (Cy3 cluster intensity, sum of 5 cycles each) (fold (ratio)); higher = stronger signal-on switching upon ATP binding; sequences stand for … in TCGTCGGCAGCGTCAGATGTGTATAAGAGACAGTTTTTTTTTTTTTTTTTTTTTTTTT…TC
CONDITION LABEL: aptamer strand: ATP DNA aptamer (quencher-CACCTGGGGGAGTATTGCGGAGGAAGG + anchor), 100 nM annealed; ATP concentration: 500 uM
Consider the following sequences; for each one, report its switch fluorescence ratio.
Give bare numbers.

> print(dat)
   item.sequence  value.observed
1     CAGTAGCTGT             1.2
2     AATTGGTCGT           0.965
3     TTCCGGCGGA            1.08
4     AAGTGCTACC            1.02
5     CCGGCGGTTT            1.04
6     TGTTTCTATT           0.992

# return switch fluorescence ratio for each item in the list
1. AAGCTTGGCT
2. TAGGTGTGTA
3. GGAAGTTTTT
4. TGAACTAAAT
5. TGGGCGGGAT

RESULT:
1: 0.965; 2: 0.984; 3: 0.995; 4: 1.01; 5: 1
